Reference source: patent US20230037815A1

- TARGET_OR_TEST_SYSTEM: cynomolgus CD19 (cynomolgus)
- MEASUREMENT_DESCRIPTION: Octet HTX (ForteBio), IgG on AHC sensor, 1:1 fit
MEASURED_PARAMETER: Kd (nM)
Supply the numeric figure in nM, leaving out any unit text.

# BINDER, Kd (nM)
measured = [
    ("CNG-CD19-701 (antibody, V domains shown) VH: QVQLQESGPGLVKPSQTLSLTCTVSGGSISTSTMGVGWIRQHPGKGLEWIGFIWWDDDKRYNPNLKSRVTMSVDTSKNQFSLKLSSVTAADTAVYYCARMELWSYYFDYWGQGTLVTVSS VL: EIVLTQSPATLSLSPGERATLSCSASSSVGYMHWYQQKPGQAPRLLIYDTSKLASGIPARFSGSGSGTDFTLTISSLEPEDFAVYYCFQGSVYPFTFGQGTKLEIK", 0.668),
    ("CNG-CD19-108 (antibody, V domains shown) VH: QVQLVQSGAEVKKPGASVKVSCKASGYDFTDYIVHWVRQAPGQGLEWMGYINPYNDGSKYTEKFQGRVTMTSDTSISTAYMELSRLRSDDTAVYYCARGTYYYGPQLFDYWGQGTTVTVSS VL: DIVMTQTPLSLSVTPGQPASISCKSSQSLETVTGTTYLNWYLQKPGQSPQLLIYRVSKRFSGVPDRFSGSGSGTDFTLKISRVEAEDVGVYYCLQLLEDPPTFGQGTKLEIK", 2.25),
    ("CNG-CD19-706 (antibody, V domains shown) VH: QVQLQESGPGLVKPSQTLSLTCTVSGGSIASGMGVSWIRQHPGKGLEWIGHIWWDDDKRYNPALKSRVTISVDTSKNQFSLKLSSVTAADTAVYYCARMELWSYYFDPWGQGTLVTVSS VL: EIVLTQSPATLSLSPGERATLSCSASSSVGYMHWYQQKPGQAPRLLIYDTSKLASGIPARFSGSGSGTDFTLTISSLEPEDFAVYYCFQGSVYPFTFGQGTKLEIK", 0.372),
    ("CNG-CD19-707 (antibody, V domains shown) VH: QVQLQESGPGLVKPSQTLSLTCTVSGGSISTSTMGVGWIRQHPGKGLEWIGFIWWDDDKRYNPNLKSRVTMSVDTSKNQFSLKLSSVTAADTAVYYCARMELWSYYFDPWGQGTLVTVSS VL: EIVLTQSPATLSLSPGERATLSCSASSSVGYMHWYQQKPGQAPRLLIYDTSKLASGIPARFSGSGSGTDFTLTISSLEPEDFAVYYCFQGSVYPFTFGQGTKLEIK", 0.738),
]

Here is another binder to look at.
For the binder CNG-CD19-704 (antibody, V domains shown) VH: QVQLQESGPGLVKPSQTLSLTCTVSGGSIASGMGVGWIRQHPGKGLEWIGHIWWDDDKRYNPALKSRVTISVDTSKNQFSLKLSSVTAADTAVYYCARMELWSYYFDGWGQGTLVTVSS VL: EIVLTQSPATLSLSPGERATLSCSASSSVSYMHWYQQKPGQAPRLLIYDTSKLASGIPARFSGSGSGTDFTLTISSLEPEDFAVYYCFQGSVYPFTFGQGTKLEIK , report Kd.
1.24
